# System: Dengue virus
# assay.info: Inhibition of Dengue virus NS2B-NS3 serine protease expressed in Escherichia coli BL 21 (DE3) at 50 uM preincubated for 15 mins before substrate addition measured after 15 mins by fluorimetric analysis
Returns one of Met or Not met; Met when inhibition is >= 20%.

- molecule: "O=C(/C=C/c1ccccc1)C(=O)NCc1ccccc1"
  discrete.label: "Not met"
- molecule: "Cn1cc(/C=C/C(=O)C(=O)NC(C)(C)C)c2ccccc21"
  discrete.label: "Met"
- molecule: "CC(NC(=O)C(=O)/C=C/c1ccccc1)c1ccccc1 (stereo not given)"
  discrete.label: "Not met"
- molecule: "COc1ccc(/C=C/C(=O)C(=O)NC(C)(C)C)cc1"
  discrete.label: "Not met"
- molecule: "CNC(=O)/C=C/c1ccccc1"
  discrete.label: "Not met"
- molecule: "CC(C)(C)NC(=O)C(=O)/C=C/c1ccccn1"
  discrete.label: "Met"

Query: Please check the record CC(C)(C)NC(=O)C1(/C=C/c2ccccc2)CO1 (stereo not given) and state if its inhibition is at or above 20%.
Response: Not met

Query: Next: CN(C)C(=O)C(=O)/C=C/c1ccccc1
Response: Met

----------
# Tested on: Dengue virus
# assay.info: Inhibition of Dengue virus NS2B-NS3 serine protease expressed in Escherichia coli BL 21 (DE3) at 50 uM preincubated for 15 mins before substrate addition measured after 15 mins by fluorimetric analysis
quantity.kind: inhibition
Give the value; after it, write the unit.

For orientation, consider the following solved cases.
- entry.smiles: "CC(C)(C)NC(=O)C(=O)/C=C/c1ccncc1"
  quantity.kind: "inhibition"
  result: "18.4%"
- entry.smiles: "CC(C)(C)NC(=O)C(=O)/C=C/c1c[nH]c2ccccc12"
  quantity.kind: "inhibition"
  result: "39.1%"
- entry.smiles: "C/C(=C\\C(=O)C(=O)NC(C)(C)C)c1ccccc1"
  quantity.kind: "inhibition"
  result: "19.6%"

Query: Entry CC(C)(C)NC(=O)C(=O)/C=C/c1ccc(O)cc1 : reported inhibition = ?
Response: 37.6%

Query: Next: CC(=O)Nc1ccc(/C=C/C(=O)C(=O)NC(C)(C)C)cc1
Response: 32.9%

Query: Next: C/C(=C\c1ccccc1)C(=O)C(=O)NC(C)(C)C
Response: 25.6%

Query: Next: CC(=O)OCCNC(=O)C(=O)/C=C/c1ccccc1
Response: 35.8%
